ASSAY: chemical genetic growth profiling, strain panel (AID 1159580);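 also: tested at 20 µM; growth read once vehicle control cultures reached saturation at 30 °C; 1 = growth at the plate median or of vehicle wells; lower values mean less growth of the strain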
MEASUREMENT CONTEXT: S. cerevisiae deletion strains, growth OD, locus YOR070C, strain gyp1, hits give low values
Among all 5,500 compounds or so, about 2,000 (36%) were called active. Another 18% or so got no clear call; they are omitted. The list shows a part of the results.
// reported normalized growth per item
A bare number is all that is needed in reply.

Dear colleague, I am looking for the recorded normalized growth of the following molecule: CO[C@H]1[C@H](O)[C@H](O[C@H]2CC[C@]3(C)C4CC[C@]5(C)C(C6=CC(=O)OC6)CC[C@]5(O)C4CC[C@@H]3C2)O[C@@H](C)[C@@H]1O (some centres undefined)
1.01

Same thing, different molecule: CCCCCCCCNC(C)C(O)c1ccc(SC(C)C)cc1 (centres undefined)
0.0552

Same thing, different molecule: `COc1ccc2c(c1)O[C@@H]1COc3cc(OC)c(OC)cc3[C@@H]1C2=O`
0.528

Now look at this entry.
Dear colleague, I am looking for the recorded normalized growth of the following molecule: `COc1cc2c(cc1OC)[C@@H]1C(=O)c3ccc(O)c(CC=C(C)C)c3O[C@@H]1CO2`
1.02

* * *

ASSAY: chemical genetic growth profiling, strain panel (AID 1159580)
MEASUREMENT CONTEXT: S. cerevisiae deletion strains, growth OD, locus YOR144C, strain elg1
The whole screen tested about 5,500 compounds, of which about 2,000 (36%) were called active. Roughly 18% stayed inconclusive and do not appear here. Cut-off read from the data, not from the text of the source: active = normalized growth mostly below about 0.91 (no sharp cut-off); inconclusive = no clear call, values can overlap the other calls; inactive = mostly above about 0.92. This is one part of the list.
# valid calls are Yes (active), No (inactive); nothing else

Please review the following examples before continuing.
For `COc1ccc2cc([C@H](C)CO)ccc2c1` , which call appears in the assay record?
No

Same thing, different compound: `c1ccc(N=Nc2ccccc2)cc1`
No

Same thing, different compound: COc1cc(NC(C)CCCN)c2ncccc2c1 (stereo not drawn)
No

Same thing, different compound: `COc1ccc2cc([C@H](C)C(=O)O)ccc2c1`
No

Same thing, different compound: CC(C(=O)O)c1ccc(-c2ccccc2)c(F)c1 (stereo not drawn)
No

---
For COc1ccc(OC)c(C(O)C(C)N)c1 (stereo not drawn) , which call appears in the assay record?
No

Same thing, different compound: `COc1ccc2c3c1O[C@H]1C[C@@H](O)C=C[C@@]31CCN(C)C2`
No

Same thing, different compound: CC(C(=O)O)c1cccc(Oc2ccccc2)c1 (stereo not drawn)
No

Same thing, different compound: `CN1CCC(=C2c3ccccc3CC(=O)c3sccc32)CC1`
No

Same thing, different compound: C[C@H]1OC(n2cc(F)c(=O)[nH]c2=O)C(O)[C@@H]1O (stereo partly drawn)
No

Same thing, different compound: `CN(C)c1ccc(C(=C2C=CC(=[N+](C)C)C=C2)c2ccc(N(C)C)cc2)cc1`
Yes

Same thing, different compound: `O=C1C=CC(=C(c2ccc(O)cc2)c2ccc(O)cc2)C=C1`
No

Same thing, different compound: C=C(C)C1CNC(C(=O)O)C1CC(=O)O (stereo not drawn)
No

* * *

ASSAY: chemical genetic growth profiling, strain panel (AID 1159580);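 also: tested at 20 µM; growth read once vehicle control cultures reached saturation at 30 °C; 1 = growth at the plate median or of vehicle wells; lower values mean less growth of the strain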
MEASUREMENT CONTEXT: S. cerevisiae deletion strains, growth OD, locus YGL253W, strain hxk2
Out of some 5,500 compounds screened, about 2,000 (36%) were called active. Not shown: some 18% with an inconclusive outcome. No stated cut-off is given here; in the data, active means normalized growth mostly below about 0.91 (no sharp cut-off); inconclusive means no clear call, values can overlap the other calls; inactive means mostly above about 0.92. The list shows a part of the results.
# valid calls are t = active, f = inactive; nothing else

For CO[C@H]1[C@H](O)[C@H](O[C@H]2CC[C@]3(C)C4CC[C@]5(C)C(C6=CC(=O)OC6)CC[C@]5(O)C4CC[C@@H]3C2)O[C@@H](C)[C@@H]1O (stereo partly drawn) , which call appears in the assay record?
f

Same thing, different compound: CC(=O)OCC(=O)[C@H]1CCC2C3CCC4=CC(=O)CC[C@]4(C)C3CC[C@@]21C (stereo partly drawn)
f

Same thing, different compound: `CCN(CC)CCNC(=O)c1cc(Br)c(N)cc1OC`
f

Same thing, different compound: COc1cc(NC(C)CCCN)c2ncccc2c1 (stereo not drawn)
f

Same thing, different compound: CC1=C(C(C)O)C2=NC1C=c1[nH]c(c(C)c1C(C)O)=Cc1[nH]c(c(CCC(=O)O)c1C)C=c1[nH]c(c(C)c1CCC(=O)O)=C2 (stereo not drawn)
f

Same thing, different compound: C=Cc1c2[nH]c(c1C)C=c1[nH]c(c(C)c1C=C)=CC1N=C(C=c3[nH]c(c(C)c3CCC(=O)O)=C2)C(CCC(=O)O)=C1C (stereo not drawn)
f

---
For CC(C[N+](C)(C)C)OC(N)=O (stereo not drawn) , which call appears in the assay record?
f

Same thing, different compound: `CN(C)c1ccc(C(=C2C=CC(=[N+](C)C)C=C2)c2ccc(N(C)C)cc2)cc1`
t

Same thing, different compound: CC(=O)OCC(=O)[C@@]1(O)CCC2C3CCC4=CC(=O)CC[C@]4(C)C3C(=O)C[C@@]21C (stereo partly drawn)
f

Same thing, different compound: `CCOC(=O)C(C)(C)Oc1ccc(Cl)cc1`
f

Same thing, different compound: `COc1cc(/C=C/C(=O)/C=C(O)/C=C/c2ccc(O)c(OC)c2)ccc1O`
t

Same thing, different compound: `Cc1[nH]c(C)c(Cl)c(=O)c1Cl`
f

Same thing, different compound: `O=C1C=CC(=C(c2ccc(O)cc2)c2ccc(O)cc2)C=C1`
f

* * *

ASSAY: chemical genetic growth profiling, strain panel (AID 1159580);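 also: tested at 20 µM; growth read once vehicle control cultures reached saturation at 30 °C; 1 = growth at the plate median or of vehicle wells; lower values mean less growth of the strain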
MEASUREMENT CONTEXT: S. cerevisiae deletion strains, growth OD, locus YDR318W, strain mcm21, hits give low values
Screen size: about 5,500 compounds; about 2,000 (36%) were called active. Not shown: some 18% with an inconclusive outcome. The list shows a part of the results.
PROPERTY NAME: normalized growth

Here's what some known entries look like.
Dear colleague, I am looking for the recorded normalized growth of the following compound: `Cc1cc(O)c(C)c(O)c1C(=O)O`
0.979 (inactive)

Same thing, different compound: `COc1cc(O)c(C(=O)/C=C/c2ccccc2)c(OC)c1`
0.816 (active)

Same thing, different compound: `CC(C)(OC(=O)c1ccccc1)[C@@H]1Cc2cc3ccc(=O)oc3cc2O1`
0.954 (inactive)

Same thing, different compound: CCOC(=O)C(=O)C1(C(=O)OCC)Oc2cc(OC)cc(OC)c2C(=O)C1c1ccccc1 (stereo unspecified)
0.936 (inactive)

---
Dear colleague, I am looking for the recorded normalized growth of the following compound: `CN1CCC(=C2c3ccccc3CC(=O)c3sccc32)CC1`
1.02 (inactive)

Same thing, different compound: `CC(=O)OCC[N+](C)(C)C`
1.01 (inactive)

Same thing, different compound: C[C@H]1OC(n2cc(F)c(=O)[nH]c2=O)C(O)[C@@H]1O (stereo partly specified)
0.973 (inactive)

Same thing, different compound: CNC(C)[C@H](O)c1ccccc1 (stereo partly specified)
1 (inactive)

Same thing, different compound: `CC(=O)OC(C)(C)[C@@H]1Cc2cc3ccc(=O)oc3cc2O1`
0.991 (inactive)

Same thing, different compound: CCN(CC)CCCC(C)Nc1c2ccc(Cl)cc2nc2ccc(OC)cc12 (stereo unspecified)
0.618 (active)

Same thing, different compound: CCN(CCO)CCCC(C)Nc1ccnc2cc(Cl)ccc12 (stereo unspecified)
1.03 (inactive)

Same thing, different compound: `CN[C@@H](C)[C@@H](O)c1ccccc1`
0.986 (inactive)

Same thing, different compound: `COc1ccc2c(c1)OCc1c-2oc2cc(OC)ccc12`
0.988 (inactive)

Same thing, different compound: `CCOC(=O)c1c(C)cc(O)c(C=O)c1O`
0.142 (active)

* * *

ASSAY: chemical genetic growth profiling, strain panel (AID 1159580);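 also: tested at 20 µM; growth read once vehicle control cultures reached saturation at 30 °C; 1 = growth at the plate median or of vehicle wells; lower values mean less growth of the strain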
MEASUREMENT CONTEXT: S. cerevisiae deletion strains, growth OD, locus YIL125W, strain kgd1, hits give low values
The campaign covered roughly 5,500 compounds. About 2,000 (36%) were called active. Roughly 18% stayed inconclusive and do not appear here. The list shows a part of the results.
// reported normalized growth per item
A bare number is all that is needed in reply.

Here's what some known entries look like.
Dear colleague, I am looking for the recorded normalized growth of the following compound: ClC1=C(Cl)C2(Cl)C3C(Cl)C=CC3C1(Cl)C2(Cl)Cl (centres undefined)
1

Same thing, different compound: `CC(=O)c1c(O)c(C)c(O)c2c1oc1c(C(C)=O)c(O)c(C)c(O)c12`
0.983

Same thing, different compound: CC(C)CC(NC(=O)C(Cc1ccccc1)NC(=O)CNC(=O)CNC(=O)C(N)Cc1ccc(O)cc1)C(=O)O (centres undefined)
0.993

Now look at this entry.
Dear colleague, I am looking for the recorded normalized growth of the following compound: C=C1C2CC[C@H]3[C@]4(C)C[C@H](OC5OC(CO)C(OS(=O)(=O)O)C(OS(=O)(=O)O)C5OC(=O)CC(C)C)C[C@@H](C(=O)O)[C@H]4CC[C@]3(C2)[C@H]1O (some centres undefined)
0.97
